Test system: Z-138 cells
Test: Z-138 Methylation Assay (In Cell Western for symmetric di-methyl arginine and DNA content)
Assay type: cell-based
Details: Homo sapiens, Table D-2, read-out: ICW EC50
Measured EC50 of individual entries

molecule	EC50
CN1CCC(n2cnc3ccc(-c4cccc(OCC(O)CN5CCc6ccccc6C5)c4)cc32)CC1 (stereo not shown)	101 to 1000 nM
OC(CNc1cc(-c2ncc3ccn(C4CNC4)c3n2)ccn1)CN1CCc2ccccc2C1 (stereo not shown)	101 to 1000 nM
OC(COc1cccc(-c2ccc3c(c2)OCCO3)c1)CN1CCc2ccccc2C1 (stereo not shown)	1000 to 10000 nM
Cn1ccc2cnc(-c3cccc(OCC(O)CN4CCc5ccccc5C4)c3)nc21 (stereo not shown)	101 to 1000 nM
Cn1cnc2ccc(-c3ccnc(NCC(O)CN4CCc5ccccc5C4)n3)cc21 (stereo not shown)	101 to 1000 nM

# input molecule: OC(COc1cccc(-c2ccccc2F)c1)CN1CCc2ccccc2C1 (stereo not shown) ; wanted: its EC50
1000 to 10000 nM

One more molecule: OCc1cccc(-c2cccc(OCC(O)CN3CCc4ccccc4C3)c2)c1 (stereo not shown)
1000 to 10000 nM

One more molecule: O=C(Cn1ccc2cnc(-c3ccnc(NCC(O)CN4CCc5ccccc5C4)c3)nc21)N1CCCC1 (stereo not shown)
< 100 nM

One more molecule: Cn1cnc2ccc(-c3cc(NCC(O)CN4CCc5ccccc5C4)ccn3)cc21 (stereo not shown)
1000 to 10000 nM

One more molecule: `Cn1cnc2ccc(-c3ccnc(NC[C@@H](O)CN4CCc5ccccc5C4)c3)cc21`
1000 to 10000 nM
